# assayed-target: full-length elephant shark GR (Callorhinchus milii, UniProt V9KGN8)
# Sequence (V9KGN8 1-704): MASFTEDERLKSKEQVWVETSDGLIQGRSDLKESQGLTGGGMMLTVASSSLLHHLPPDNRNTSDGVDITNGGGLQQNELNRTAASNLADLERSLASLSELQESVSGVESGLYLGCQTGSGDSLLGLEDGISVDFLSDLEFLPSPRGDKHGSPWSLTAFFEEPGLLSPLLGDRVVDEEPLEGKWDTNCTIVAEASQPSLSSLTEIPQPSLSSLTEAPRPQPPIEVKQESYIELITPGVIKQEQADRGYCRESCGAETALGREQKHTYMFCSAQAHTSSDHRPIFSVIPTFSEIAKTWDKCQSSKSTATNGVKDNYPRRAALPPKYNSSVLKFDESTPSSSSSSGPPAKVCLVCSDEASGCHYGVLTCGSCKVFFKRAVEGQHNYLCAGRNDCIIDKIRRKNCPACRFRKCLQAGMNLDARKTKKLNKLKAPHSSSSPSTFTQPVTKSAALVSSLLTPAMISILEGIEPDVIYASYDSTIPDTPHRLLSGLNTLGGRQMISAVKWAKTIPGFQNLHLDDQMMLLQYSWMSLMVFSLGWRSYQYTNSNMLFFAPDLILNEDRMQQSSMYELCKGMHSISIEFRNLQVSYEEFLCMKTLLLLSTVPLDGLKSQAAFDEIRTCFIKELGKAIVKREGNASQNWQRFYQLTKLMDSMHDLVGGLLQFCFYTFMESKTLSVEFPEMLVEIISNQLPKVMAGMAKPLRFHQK
# method-notes: luciferase reporter transactivation in HEK293 cells
# Format: cell-based
pEC50: −log10 of the molar value.

{"compound": "C[C@]12CCC(=O)C=C1CC[C@@H]1[C@@H]2CC[C@@]2(C)[C@H]1CC[C@]2(O)C(=O)CO [11-deoxycortisol]", "pEC50": 6.54}

---

# assayed-target: UniProt:V9KGN8
# method-notes: cell-based
# Set-up: species or system HEK293
pEC50: −log10 of the molar value.
metric-name: pEC50

{"molecule": "C[C@]12CC[C@H]3[C@@H](CCC4=CC(=O)CC[C@@]43C)[C@@H]1CC[C@@H]2C(=O)CO [11-deoxycorticosterone]", "assayed-target": "UniProt:V9KGN8", "observed-value": 7.96}
